Each recorded value in this set is attributed to paper PMC9958137.

- ASSAYED_SYSTEM: dCRY (Drosophila cryptochrome) (Drosophila melanogaster)
READOUT_KIND: Kd (pM)
Record the value in pM, omitting the unit from your answer.

input: Tell us which Kd value is on record for Cc1cc2nc3c(=O)[nH]c(=O)nc-3n(C[C@H](O)[C@H](O)[C@H](O)COP(=O)(O)OP(=O)(O)OC[C@H]3O[C@@H](n4cnc5c(N)ncnc54)[C@H](O)[C@@H]3O)c2cc1C [FAD]
output: 110

---

- ASSAYED_SYSTEM: dCRY (Drosophila cryptochrome) (Drosophila melanogaster, UniProt O77059)
- Construct: gene cry; full length, 542 residues; His6, N-terminal Avi tag (biotinylated) and C-terminal ybbR tag (DNA handle) kept; 558 residues with engineered linkers; FAD dialysed out for apo; only genus Drosophila given
- Sequence (O77059 whole entry): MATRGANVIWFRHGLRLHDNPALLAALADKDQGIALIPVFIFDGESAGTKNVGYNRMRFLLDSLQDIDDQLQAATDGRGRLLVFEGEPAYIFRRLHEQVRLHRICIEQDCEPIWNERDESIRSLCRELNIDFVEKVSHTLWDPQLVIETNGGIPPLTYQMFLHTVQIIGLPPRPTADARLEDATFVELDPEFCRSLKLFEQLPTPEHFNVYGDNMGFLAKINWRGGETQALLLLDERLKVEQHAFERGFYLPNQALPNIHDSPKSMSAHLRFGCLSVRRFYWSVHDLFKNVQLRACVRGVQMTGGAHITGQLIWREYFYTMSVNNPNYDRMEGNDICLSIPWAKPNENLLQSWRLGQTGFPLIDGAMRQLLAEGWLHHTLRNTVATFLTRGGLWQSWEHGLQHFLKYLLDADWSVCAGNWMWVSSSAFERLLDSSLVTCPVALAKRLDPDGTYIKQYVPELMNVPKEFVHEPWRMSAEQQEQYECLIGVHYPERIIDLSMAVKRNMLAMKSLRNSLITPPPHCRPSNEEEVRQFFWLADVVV
- PROTOCOL: single-molecule optical tweezers, ligand-promoted refolding
- Type: binding
- CONDITION_NOTES: 0.1 mM ligand, FAD dialysed out; refolding 20 s at 1 pN; pH 8.0; no Mg2+
Each item that follows carries a reported % fully folded events at 0.1 mM.
Record the value in %, omitting the unit from your answer.

# count of solved cases: 2
Cc1cc2nc3c(=O)[nH]c(=O)nc-3n(C[C@H](O)[C@H](O)[C@H](O)COP(=O)(O)O)c2cc1C 84
Nc1ncnc2c1ncn2[C@@H]1O[C@H](COP(=O)(O)O)[C@@H](O)[C@H]1O 24

input: Tell us which % fully folded events at 0.1 mM value is on record for Nc1ncnc2c1ncn2[C@@H]1O[C@H](COP(=O)(O)OP(=O)(O)O)[C@@H](O)[C@H]1O
output: 9

input: Tell us which % fully folded events at 0.1 mM value is on record for Cc1cc2nc3c(=O)[nH]c(=O)nc-3n(C[C@H](O)[C@H](O)[C@H](O)CO)c2cc1C
output: 39

input: Tell us which % fully folded events at 0.1 mM value is on record for Nc1ncnc2c1ncn2[C@@H]1O[C@H](CO)[C@@H](O)[C@H]1O
output: 20
